biological target: HiBit-BRM fusion protein (Homo sapiens, UniProt P51531); construct: expressed in transfected cells; assay: HiBiT-BRM cell-based degradation assay (Nano-Glo HiBiT Lytic Detection, 24 h); settings: HeLa cells expressing HiBiT-BRM, read-out: BRM HiBit Degradation IC50
Sequence (P51531 whole entry, the tested form may be a part): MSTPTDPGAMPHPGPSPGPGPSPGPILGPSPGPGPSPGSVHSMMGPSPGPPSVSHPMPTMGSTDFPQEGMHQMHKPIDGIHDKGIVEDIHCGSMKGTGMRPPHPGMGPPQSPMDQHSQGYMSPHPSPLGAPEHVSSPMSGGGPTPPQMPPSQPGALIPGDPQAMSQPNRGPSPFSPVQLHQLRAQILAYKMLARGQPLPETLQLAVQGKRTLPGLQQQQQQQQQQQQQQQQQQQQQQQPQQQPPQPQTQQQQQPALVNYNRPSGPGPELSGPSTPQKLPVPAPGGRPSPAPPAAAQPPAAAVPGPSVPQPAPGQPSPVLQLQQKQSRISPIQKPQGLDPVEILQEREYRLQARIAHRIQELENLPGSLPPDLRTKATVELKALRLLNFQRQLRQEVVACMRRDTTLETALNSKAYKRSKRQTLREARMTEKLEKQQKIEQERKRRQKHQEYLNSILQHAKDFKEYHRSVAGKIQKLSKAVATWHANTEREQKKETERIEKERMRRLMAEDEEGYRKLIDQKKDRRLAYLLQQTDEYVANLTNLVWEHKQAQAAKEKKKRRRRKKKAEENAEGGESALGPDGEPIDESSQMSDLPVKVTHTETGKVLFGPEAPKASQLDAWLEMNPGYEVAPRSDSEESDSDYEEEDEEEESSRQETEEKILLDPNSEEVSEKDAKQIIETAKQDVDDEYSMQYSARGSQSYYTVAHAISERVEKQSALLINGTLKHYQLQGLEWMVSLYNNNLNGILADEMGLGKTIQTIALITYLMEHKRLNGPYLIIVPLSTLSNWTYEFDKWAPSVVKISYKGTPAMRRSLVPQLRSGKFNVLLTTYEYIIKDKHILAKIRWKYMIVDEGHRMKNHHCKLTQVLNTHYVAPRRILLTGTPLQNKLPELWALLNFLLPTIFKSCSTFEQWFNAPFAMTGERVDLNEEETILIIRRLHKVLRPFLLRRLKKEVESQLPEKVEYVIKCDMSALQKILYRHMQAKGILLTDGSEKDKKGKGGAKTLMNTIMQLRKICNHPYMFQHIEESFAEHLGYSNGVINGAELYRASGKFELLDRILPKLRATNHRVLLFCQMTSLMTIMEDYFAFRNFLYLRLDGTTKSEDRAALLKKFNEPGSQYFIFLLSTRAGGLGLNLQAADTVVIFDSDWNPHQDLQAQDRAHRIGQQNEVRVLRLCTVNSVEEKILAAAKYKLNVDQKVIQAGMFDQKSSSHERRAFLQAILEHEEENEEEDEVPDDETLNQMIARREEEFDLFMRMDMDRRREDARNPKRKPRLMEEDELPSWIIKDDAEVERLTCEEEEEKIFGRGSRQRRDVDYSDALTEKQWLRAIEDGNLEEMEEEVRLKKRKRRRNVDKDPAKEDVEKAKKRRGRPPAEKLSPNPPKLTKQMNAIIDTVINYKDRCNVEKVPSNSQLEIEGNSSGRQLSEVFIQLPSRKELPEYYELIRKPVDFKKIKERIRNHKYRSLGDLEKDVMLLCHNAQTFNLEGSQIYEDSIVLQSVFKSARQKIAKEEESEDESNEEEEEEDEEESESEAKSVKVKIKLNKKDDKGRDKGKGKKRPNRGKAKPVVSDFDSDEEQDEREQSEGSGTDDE
Each record here notes measured DC50.

Below, 3 molecules whose answers are already recorded.
Problem: Bench note: what DC50 did CS(=O)(=O)n1ccc(C(=O)NCC(=O)Nc2nc(C3CCCN(C(=O)CCOCCOCCOc4ccc5c(c4)C(=O)N(C4CCC(=O)NC4=O)C5=O)C3)cs2)c1 (centres unmarked) show?
Solution: > 10 µM

Problem: Bench note: what DC50 did Cc1cc(C(=O)NCC(=O)Nc2nc(-c3cccc(-c4ccnc(N(C)CC(=O)NCCCCCNc5cccc6c5C(=O)N(C5CCC(=O)NC5=O)C6=O)c4)c3)cs2)cn1S(C)(=O)=O (centres unmarked) show?
Solution: > 10 µM

Problem: Bench note: what DC50 did `Cc1ncsc1-c1ccc(CNC(=O)[C@@H]2C[C@@H](O)CN2C(=O)[C@@H](NC(=O)CCCCCCCCCCC(=O)NCCCC[C@H](NC(=O)c2ccn(S(C)(=O)=O)c2)C(=O)Nc2nc(-c3ccccc3)cs2)C(C)(C)C)cc1` show?
Solution: > 10 µM

More entries:
Problem: Bench note: what DC50 did CS(=O)(=O)n1ccc(C(=O)N[C@@H](COCc2ccc(C(=O)NCCOCCOCCOCCNC(=O)COc3cccc4c3C(=O)N(C3CCC(=O)NC3=O)C4=O)cc2)C(=O)Nc2nc(-c3ccccc3)cs2)c1 (some centres unmarked) show?
Solution: > 10 µM

Problem: Bench note: what DC50 did CS(=O)(=O)n1ccc(C(=O)N[C@@H](CCOCCCC(=O)NCCCC#Cc2cccc3c2C(=O)N(C2CCC(=O)NC2=O)C3=O)C(=O)Nc2nc(-c3ccccc3)cs2)c1 (some centres unmarked) show?
Solution: > 10 µM
